- measured.target: AKT2 (Homo sapiens, UniProt P31751)
- Sequence (P31751 whole entry): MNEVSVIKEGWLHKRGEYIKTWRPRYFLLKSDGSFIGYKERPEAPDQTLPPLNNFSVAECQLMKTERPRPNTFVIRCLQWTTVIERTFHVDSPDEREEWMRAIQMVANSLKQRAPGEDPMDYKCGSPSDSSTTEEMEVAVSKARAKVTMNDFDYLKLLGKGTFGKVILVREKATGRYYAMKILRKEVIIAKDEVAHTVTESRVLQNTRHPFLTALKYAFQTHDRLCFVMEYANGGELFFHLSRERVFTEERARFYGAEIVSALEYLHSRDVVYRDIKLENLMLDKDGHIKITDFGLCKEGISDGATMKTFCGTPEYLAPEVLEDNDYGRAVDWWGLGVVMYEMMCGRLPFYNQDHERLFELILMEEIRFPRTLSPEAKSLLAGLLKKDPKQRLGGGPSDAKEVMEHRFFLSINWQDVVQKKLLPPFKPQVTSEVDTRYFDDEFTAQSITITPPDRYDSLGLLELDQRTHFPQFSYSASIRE
- experiment.notes: Live cell AKT2 target engagement by NanoBRET competitive probe displacement
- test.parameters: HEK293 cells transfected with kinase-NanoLuciferase fusion, 2 h at 37° C.
readout.name: pIC50
One number for each entry, as −log10 of the molar value.

Value sought for every listed compound: pIC50.
1. C=CC(=O)N1CCC(N[C@@H]2c3ccc(-n4c(-c5cccnc5N)nc5ccc(-n6ccc(OC)n6)nc54)cc3CC2F)CC1 (single isomer, unassigned) [Example 286]
2. C=CC(=O)N1CCC(N[C@@H]2c3ccc(-n4c(-c5ccccc5F)nc5ccc(-n6cccn6)nc54)cc3CC2F)C[C@H]1C (single isomer, unassigned) [Example 316]
3. C=CC(=O)N1CCC(N[C@H]2CCc3cc(-n4c(-c5cccnc5N)nc5ccc(C6CC6)nc54)ccc32)C[C@H]1C (single isomer, unassigned) [Example 210]
4. C#CC1CC(N[C@H]2CCc3cc(-n4c(-c5cccnc5N)nc5ccc(-n6cccn6)nc54)ccc32)CCN1C(=O)C=C (single isomer, unassigned) [Example 112]
5. C=CC(=O)N(C)Cc1ccccc1C(=O)N[C@H]1CCc2cc(-n3c(-c4cccnc4N)nc4ccc(-n5cccn5)nc43)ccc21
6. C=CC(=O)N1CCC(N[C@@H]2c3ccc(-n4c(-c5ccccc5)nc5ccc(-n6cccn6)nc54)cc3CC2F)CC1 (single isomer, unassigned) [Example 249]
7. C=CC(=O)N1CCC(N[C@@H]2c3ccc(-n4c(-c5ccccc5F)nc5ccc(-n6cccn6)nc54)cc3CC2F)CC1 (single isomer, unassigned)
8. C#Cc1cccc(-c2ccc3nc(-c4cccnc4N)n(-c4ccc5c(c4)CC[C@@H]5NC4CCN(C(=O)C=C)CC4)c3n2)c1

7.44
6.95
6.57
7.75
7.61
6.84
7.46
7.57

Value sought for every listed compound: pIC50.
1. C=CC(=O)N1CCC(N[C@H]2CCc3cc(-n4c(-c5cccnc5N)nc5cc(F)c(-n6cccn6)nc54)ccc32)CC1
2. C=CC(=O)N1CCN(N[C@H]2CCc3cc(-n4c(-c5cccnc5N)nc5ccc(C6CC6)nc54)ccc32)CC1
3. C=CC(=O)N1CCC(N[C@H]2CCc3cc(-n4c(-c5cccnc5N)nc5ccc(-c6nnc(C)s6)nc54)ccc32)CC1
4. C=CC(=O)N1CCC(N[C@H]2CCc3cc(-n4c(-c5cccnc5N)nc5ccc(C6CC6)nc54)ccc32)C(C)C1 (single isomer, unassigned) [Example 229]
5. CC#CC(=O)N1CCC(N[C@H]2CCc3cc(-n4c(-c5cccnc5N)nc5ccc(-n6cccn6)nc54)ccc32)CC1
6. CC(C)(C)/C=C/C(=O)N1CCC(N[C@H]2CCc3cc(-n4c(-c5cccnc5N)nc5ccc(-n6cccn6)nc54)ccc32)CC1
7. C=CC(=O)N1CCC(N[C@H]2CCc3cc(-n4c(-c5cccnc5N)nc5ccc(-n6cccn6)nc54)ccc32)C(C#N)C1 (single isomer, unassigned) [Example 155]

[6.95, 6.36, 7.14, 7.01, 6.65, 5.92, 5.91]

Value sought for every listed compound: pIC50.
1. C=CC(=O)Nc1cnccc1C(=O)N[C@H]1CCc2cc(-n3c(-c4cccnc4N)nc4ccc(-n5cccn5)nc43)ccc21
2. C=CC(=O)N1CCC(N[C@H]2CCc3cc(-n4c(-c5cccnc5N)nc5ccc(-n6cccn6)nc54)ccc32)c2ccccc21 (single isomer, unassigned) [Example 126]

1. 5.30
2. 5.07
